Biological target: bovine thrombin (Bos taurus, UniProt P00735)
Construct: a 0.2 unit/ml bovine thrombin solution
Experiment: Antithrombin activity: inhibition of fibrin formation (fibrinogen)
Format: biochemical
Conditions: Table 2; bovine fibrinogen, pH 7.4, 37° C.; read-out: Thrombin Fibrinogen I50 (concentration doubling coagulation time)
pIC50: −log10 of the molar value. Where a name gives a salt, the structure may show the parent alone.
MEASUREMENT_TYPE: pIC50

NC[C@H]1CC[C@H](C(=O)NC(Cc2cccc(Oc3ccc(Br)cn3)c2)C(=O)N2CCOCC2)CC1 (stereo partly shown) | < 3.00
CCOC(=O)c1cccc(NC(=O)C(Cc2cccc(Oc3ccccc3)c2)NC(=O)[C@H]2CC[C@H](CN)CC2)c1 (stereo partly shown) | < 4.00
COCCCNC(=O)C(Cc1cccc(Oc2ccccc2)c1)NC(=O)[C@H]1CC[C@H](CN)CC1 (mixture of isomers) [Compound 14, hydrochloride] | < 3.30
NC[C@H]1CC[C@H](C(=O)NC(Cc2cccc(Oc3ccccc3)c2)C(=O)Nc2ncccc2C(=O)O)CC1 (mixture of isomers) [Compound 10, dihydrobromide] | < 3.90
NC[C@H]1CC[C@H](C(=O)NC(Cc2cccc(Oc3ccccc3)c2)C(=O)Nc2ccnc(Cl)c2)CC1 (mixture of isomers) [Compound 9, dihydrochloride] | < 3.30

Record N=C(N)c1ccc(NC(=O)C(Cc2cccc(Oc3ccccc3)c2)NC(=O)[C@H]2CC[C@H](CN)CC2)cc1 (mixture of isomers) [Compound 5, dihydrochloride] : what is its pIC50 with bovine thrombin (Bos taurus, UniProt P00735)?
< 4.00

Same question, COCCCNC(=O)C(Cc1cccc(Oc2ccc(Br)cn2)c1)NC(=O)[C@H]1CC[C@H](CN)CC1 (mixture of isomers) [Compound 25, hydrochloride] this time
< 3.00

What do we get for NC[C@H]1CC[C@H](C(=O)NC(Cc2cccc(Oc3ccccc3)c2)C(=O)Nc2cccnc2)CC1 (stereo partly shown) ?
< 3.00
